These data points were gathered from ChEMBL document CHEMBL4428100.

molecular target: Delta-type opioid receptor (Homo sapiens); assay: Binding affinity to DOR (unknown origin)
Sequence (P41143 whole entry): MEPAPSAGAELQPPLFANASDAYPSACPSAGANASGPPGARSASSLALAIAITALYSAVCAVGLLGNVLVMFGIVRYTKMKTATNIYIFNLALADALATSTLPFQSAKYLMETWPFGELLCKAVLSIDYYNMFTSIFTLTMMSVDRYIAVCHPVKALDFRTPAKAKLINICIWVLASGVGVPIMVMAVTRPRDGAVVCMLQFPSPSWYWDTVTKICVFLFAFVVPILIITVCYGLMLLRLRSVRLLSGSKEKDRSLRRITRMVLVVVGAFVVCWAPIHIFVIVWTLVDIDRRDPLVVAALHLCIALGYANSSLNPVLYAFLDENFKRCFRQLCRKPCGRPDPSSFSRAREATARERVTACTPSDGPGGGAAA
Non-standard residues stand in square brackets, D forms with d. Residues, ends and D or L forms follow the SMILES beside them.
Readout kind: pIC50
As a rule, pIC50 stands for the negative log10 of the concentration, concentration in M.

Incoming: Item: O=C1N[C@@H](Cc2ccccc2)C(=O)N2CCC[C@@H]2C(=O)N[C@@H](Cc2ccccc2)C(=O)N[C@H]1Cc1c[nH]c2ccccc12 (cyclo(FWF[dP])) Test system: Delta-type opioid receptor (Homo sapiens) Read-out: pIC50 Value: ?
Outgoing: 5.59

====

molecular target: Mu-type opioid receptor (Homo sapiens)
Non-standard residues stand in square brackets, D forms with d. Residues, ends and D or L forms follow the SMILES beside them.
Each entry below lists one item and its recorded pKi value.
As a rule, pKi stands for the negative log10 of the concentration, concentration in M.

Incoming: Item: `O=C1NCCC(=O)N2CCC[C@@H]2C(=O)N[C@@H](Cc2ccccc2)C(=O)N[C@H]1Cc1c[nH]c2ccccc12` Test system: Mu-type opioid receptor (Homo sapiens) Read-out: pKi Value: ?
Outgoing: 8.39

Incoming: Item: O=C1N[C@@H](Cc2ccccc2)C(=O)N2CCC[C@@H]2C(=O)N[C@@H](Cc2ccccc2)C(=O)N[C@H]1Cc1c[nH]c2ccccc12 (cyclo(FWF[dP])) Test system: Mu-type opioid receptor (Homo sapiens) Read-out: pKi Value: ?
Outgoing: 6.90

====

target: Mu-type opioid receptor (Homo sapiens, UniProt P35372); assay: Binding affinity to MOR (unknown origin)
Sequence (P35372 whole entry): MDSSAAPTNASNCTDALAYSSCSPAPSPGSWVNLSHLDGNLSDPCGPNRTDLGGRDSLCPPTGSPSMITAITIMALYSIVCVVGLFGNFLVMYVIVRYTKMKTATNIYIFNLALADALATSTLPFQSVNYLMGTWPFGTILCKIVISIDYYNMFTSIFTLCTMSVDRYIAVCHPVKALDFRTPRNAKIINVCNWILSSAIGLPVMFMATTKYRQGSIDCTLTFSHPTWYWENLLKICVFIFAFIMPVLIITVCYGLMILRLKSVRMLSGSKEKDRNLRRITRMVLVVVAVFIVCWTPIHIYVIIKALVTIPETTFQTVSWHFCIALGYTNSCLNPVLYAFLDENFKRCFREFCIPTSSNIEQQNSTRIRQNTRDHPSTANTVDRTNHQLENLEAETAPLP
Non-standard residues stand in square brackets, D forms with d. Residues, ends and D or L forms follow the SMILES beside them.
Readout kind: IC50 (µM)
Numeric answer only, unit µM assumed.

Incoming: # IC50 lookup, item O=C1N[C@@H](Cc2ccccc2)C(=O)N2CCC[C@@H]2C(=O)N[C@@H](Cc2ccccc2)C(=O)N[C@H]1Cc1c[nH]c2ccccc12 (cyclo(FWF[dP]))
Outgoing: 0.26

====

pKi: −log10 of the molar value.
What follows is a collection of pKi values obtained with Mu-type opioid receptor (Homo sapiens, UniProt P35372).

Consider the following illustrative entries.
Cn1cc(C[C@H]2NC(=O)[C@H](Cc3ccccc3)NC(=O)[C@H]3CCCN3C(=O)[C@H](Cc3ccccc3)NC2=O)c2ccccc21 = < 4.00
C[C@@H]1NC(=O)[C@H](Cc2c[nH]c3ccccc23)NC(=O)[C@@H](Cc2ccccc2)NC(=O)[C@H]2CCCN2C1=O = < 4.00

Incoming: # pKi lookup, item `C[C@H]1NC(=O)[C@H](Cc2c[nH]c3ccccc23)NC(=O)[C@H](Cc2ccccc2)NC(=O)[C@H]2CCCN2C1=O`
Outgoing: < 4.00
